So I've got a bunch of compounds here, and I need their pIC50 values.
Tested on: KARPAS-299
Assay remarks: cells
Setup conditions: Homo sapiens, KARPAS-299, 72 h
Description: Cytotoxicity against human KARPAS299 cells incubated for 72 hrs by MTT assay
Answers are plain numbers, as −log10 of the molar value.

Compound structure	pIC50
COCCN1CCN(c2ccc(Nc3ncc(Cl)c(Nc4ccccc4S(=O)(=O)C(C)C)n3)c(OC)c2)C1=O	6.24

For the 3 compounds below, give their pIC50 values.
1. CCOC(=O)CN1CCN(c2ccc(Nc3ncc(Cl)c(Nc4ccccc4S(=O)(=O)C(C)C)n3)c(OC)c2)C1=O
2. COc1cc(N2CCN(CC(=O)N3CCOCC3)C2=O)ccc1Nc1ncc(Cl)c(Nc2ccccc2S(=O)(=O)C(C)C)n1
3. COc1cc(N2CCN(CC(=O)N3CCC(C)CC3)C2=O)ccc1Nc1ncc(Cl)c(Nc2ccccc2S(=O)(=O)C(C)C)n1

Marked response:
[6.12, 6.12, 6.55]
